What EC50 was measured for each of the following?
- STUDY_TARGET: TLR2 (Homo sapiens, UniProt O60603)
- Sequence (O60603 21-784): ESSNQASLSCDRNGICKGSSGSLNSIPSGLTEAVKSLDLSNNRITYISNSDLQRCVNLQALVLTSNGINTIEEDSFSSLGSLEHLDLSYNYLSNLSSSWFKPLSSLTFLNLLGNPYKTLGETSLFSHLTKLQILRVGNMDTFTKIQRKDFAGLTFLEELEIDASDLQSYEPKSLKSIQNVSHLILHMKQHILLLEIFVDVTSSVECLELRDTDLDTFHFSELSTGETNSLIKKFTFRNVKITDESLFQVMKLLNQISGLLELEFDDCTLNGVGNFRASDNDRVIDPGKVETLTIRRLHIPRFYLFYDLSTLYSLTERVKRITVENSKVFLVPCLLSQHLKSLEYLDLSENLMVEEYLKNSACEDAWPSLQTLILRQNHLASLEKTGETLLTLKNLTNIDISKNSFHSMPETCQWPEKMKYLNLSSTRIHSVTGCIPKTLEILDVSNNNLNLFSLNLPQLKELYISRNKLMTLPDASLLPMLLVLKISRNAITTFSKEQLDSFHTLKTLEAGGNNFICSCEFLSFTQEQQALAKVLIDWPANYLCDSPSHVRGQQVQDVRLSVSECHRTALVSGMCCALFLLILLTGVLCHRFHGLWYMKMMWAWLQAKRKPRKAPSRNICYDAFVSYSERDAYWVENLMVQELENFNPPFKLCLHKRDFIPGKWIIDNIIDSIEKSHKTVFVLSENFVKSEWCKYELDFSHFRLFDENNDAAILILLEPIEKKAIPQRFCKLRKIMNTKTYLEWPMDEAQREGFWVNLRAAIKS
- PROCEDURE_SUMMARY: TLR2 agonist screening assay, HEK-Blue TLR2 reporter cell line (NF-kB-driven SEAP, absorbance at 600 nm)
- Assay type: cell-based
- Design: host or cells: HEK-293 (HEK-Blue TLR2 reporter cell line)
- CONDITION_LABEL: HEK-Blue TLR2 reporter cells, agonist mode; average of all runs (Table 4)

Some solved entries appear below for comparison.
{"COMPOUND": "CCCCCCCCCNC(=O)[C@H](CNC(=O)c1ccc(C(=O)N2C[C@@H](C(=O)N[C@H]3C[C@@H]3c3ccccc3)[C@H](C(=O)N[C@H]3C[C@@H]3c3ccccc3)C2)cc1)NC(=O)CCCCCCCCC [Compound 207]", "STUDY_TARGET": "TLR2 (Homo sapiens, UniProt O60603)", "EC50": "0.1 to 50 nM"}
{"COMPOUND": "CCCCCCNC(=O)[C@H](CNC(=O)c1ccc(C(=O)N2C[C@@H](C(=O)N[C@H]3C[C@@H]3c3ccccc3)[C@H](C(=O)N[C@H]3C[C@@H]3c3ccccc3)C2)cc1)NC(=O)NCCCCC [Compound 137]", "STUDY_TARGET": "TLR2 (Homo sapiens, UniProt O60603)", "EC50": "51 to 350 nM"}
{"COMPOUND": "CCCCCCNC(=O)[C@H](CNC(=O)c1ccc(C(=O)N2C[C@@H](C(=O)N[C@H]3C[C@@H]3c3ccccc3)[C@H](C(=O)N[C@H]3C[C@@H]3c3ccccc3)C2)cc1)NC(=O)Cc1ccc(F)cc1 [Compound 138]", "STUDY_TARGET": "TLR2 (Homo sapiens, UniProt O60603)", "EC50": "0.1 to 50 nM"}

Hi there! I need EC50 for each item below, if you can.
1. CCCCCCCCCCCCCCNC(=O)[C@@H]1CN(C(=O)c2ccc(C(=O)N3C[C@@H](C(=O)N[C@H]4C[C@@H]4c4ccccc4)[C@H](C(=O)N[C@H]4C[C@@H]4c4ccccc4)C3)cc2)CCN1C(=O)C(C)(C)C [Compound 251]
2. CCCCCCCCCCCCCNC(=O)N[C@H]1CN(C(=O)Nc2ccc(C(=O)N3C[C@@H](C(=O)N[C@H]4C[C@@H]4c4ccccc4)[C@H](C(=O)N[C@H]4C[C@@H]4c4ccccc4)C3)cc2)C[C@@H]1OC [Compound 238]
3. CCCCCCCCCCCCCCNC(=O)[C@H]1CN(Cc2ccc(C(=O)N3C[C@@H](C(=O)N[C@H]4C[C@@H]4c4ccccc4)[C@H](C(=O)N[C@H]4C[C@@H]4c4ccccc4)C3)cc2)C(=O)CN1C [Compound 092]

**A:**
["> 1000 nM", "351 to 1000 nM", "51 to 350 nM"]

Hi there! I need EC50 for each item below, if you can.
1. CCCCCCCCCCCCNC(=O)N[C@@H]1CCCN(C(=O)c2ccc(C(=O)N3C[C@@H](C(=O)N[C@H]4C[C@@H]4c4ccccc4)[C@H](C(=O)N[C@H]4C[C@@H]4c4ccccc4)C3)cc2)C1 [Compound 204]
2. CCCCCCCCNC(=O)[C@H](CNC(=O)c1ccc(C(=O)N2C[C@@H](C(=O)N[C@H]3C[C@@H]3c3ccccc3)[C@H](C(=O)N[C@H]3C[C@@H]3c3ccccc3)C2)cc1)NC(=O)CCCCCC [Compound 141]
3. CCCCCCCCCCCCCCNC(=O)[C@@H]1CN(C(=O)c2ccc(C(=O)N3C[C@@H](C(=O)N[C@H]4C[C@@H]4c4ccccc4)[C@H](C(=O)N[C@H]4C[C@@H]4c4ccccc4)C3)cc2)CCO1 [Compound 151]
4. CCCCCCCCCCCCCCC(=O)N[C@H]1CN(C(=O)c2ccc(C(=O)N3C[C@@H](C(=O)N[C@H]4C[C@@H]4c4ccccc4)[C@H](C(=O)N[C@H]4C[C@@H]4c4ccccc4)C3)cc2)C[C@H]1OC [Compound 236]
5. CCCCCCCOC(=O)N[C@@H](CNC(=O)c1ccc(C(=O)N2C[C@@H](C(=O)N[C@H]3C[C@@H]3c3ccccc3)[C@H](C(=O)N[C@H]3C[C@@H]3c3ccccc3)C2)cc1)C(=O)NCCCCCC [Compound 227]
6. CCCCCCCC(=O)N1CCCN(S(=O)(=O)c2ccc(C(=O)N3C[C@@H](C(=O)N[C@H]4C[C@@H]4c4ccccc4)[C@H](C(=O)N[C@H]4C[C@@H]4c4ccccc4)C3)cc2)CC1C(=O)NCCCCCC (single isomer, unassigned) [Compound 203]
7. CCCCCCCCCCCCCNC(=O)N[C@H]1CN(C(=O)c2ccc(C(=O)N3C[C@@H](C(=O)N[C@H]4C[C@@H]4c4ccccc4)[C@H](C(=O)N[C@H]4C[C@@H]4c4ccccc4)C3)cc2)C[C@@H]1OC [Compound 134]
8. CCCCCCCCCCCCCCNC(=O)[C@H]1CN(C(=O)c2ccc(C(=O)N3C[C@@H](C(=O)N[C@H]4C[C@@H]4c4ccccc4)[C@H](C(=O)N[C@H]4C[C@@H]4c4ccccc4)C3)cc2)C[C@@H]1OC [Compound 110]

**A:**
1: 0.1 to 50 nM; 2: 0.1 to 50 nM; 3: > 1000 nM; 4: 0.1 to 50 nM; 5: 0.1 to 50 nM; 6: > 1000 nM; 7: 0.1 to 50 nM; 8: 0.1 to 50 nM

Hi there! I need EC50 for each item below, if you can.
1. CCCCCCCCCCCCNC(=O)[C@@H]1CN(C(=O)c2ccc(C(=O)N3C[C@@H](C(=O)N[C@H]4C[C@@H]4c4ccccc4)[C@H](C(=O)N[C@H]4C[C@@H]4c4ccccc4)C3)cc2)CCN1C(C)=O [Compound 255]
2. CCCCCCCC(=O)N1CCN(S(=O)(=O)c2cccc(C(=O)N3C[C@@H](C(=O)N[C@H]4C[C@@H]4c4ccccc4)[C@H](C(=O)N[C@H]4C[C@@H]4c4ccccc4)C3)c2)C[C@@H]1C(=O)NCCCCCC [Compound 171]
3. CCCCCCCCCCCCCNC(=O)N[C@@H](CNC(=O)c1ccc(C(=O)N2C[C@@H](C(=O)N[C@H]3C[C@@H]3c3ccccc3)[C@H](C(=O)N[C@H]3C[C@@H]3c3ccccc3)C2)cc1)COC [Compound 198]
4. CCCCCCCCOC(=O)N[C@@H](CNC(=O)c1ccc(C(=O)N2C[C@@H](C(=O)N[C@H]3C[C@@H]3c3ccccc3)[C@H](C(=O)N[C@H]3C[C@@H]3c3ccccc3)C2)cc1)C(=O)NCCCCCC [Compound 228]

**A:**
1. > 1000 nM
2. > 1000 nM
3. > 1000 nM
4. 0.1 to 50 nM

====

- STUDY_TARGET: TLR2 (Homo sapiens, UniProt O60603)
- PROCEDURE_SUMMARY: TLR2 agonist screening assay, HEK-Blue TLR2 reporter cell line (NF-kB-driven SEAP, absorbance at 600 nm)
- Type: cell-based
- Design: host or cells: HEK-293 (HEK-Blue TLR2 reporter cell line)
- CONDITION_LABEL: HEK-Blue TLR2 reporter cells, agonist mode; average of all runs (Table 4)
ATTRIBUTE_MEASURED: EC50

Some solved entries appear below for comparison.
{"MOLECULE": "CCCCCCCCCCCCCCNC(=O)[C@@H]1CN(C(=O)c2ccc(C(=O)N3C[C@@H](C(=O)N[C@H]4C[C@@H]4c4ccccc4)[C@H](C(=O)N[C@H]4C[C@@H]4c4ccccc4)C3)cc2)C[C@@H]1O (single isomer, unassigned) [Compound 103]", "EC50": "351 to 1000 nM"}
{"MOLECULE": "CCCCCCCCCCCCCNC(=O)[C@@H]1CN(C(=O)c2ccc(C(=O)N3C[C@@H](C(=O)N[C@H]4C[C@@H]4c4ccccc4)[C@H](C(=O)N[C@H]4C[C@@H]4c4ccccc4)C3)cc2)CCN1C(C)=O [Compound 254]", "EC50": "> 1000 nM"}
{"MOLECULE": "CCCCCCCCCCCCCNC(=O)N[C@H]1CN(c2nc3ccc(C(=O)N4C[C@@H](C(=O)N[C@H]5C[C@@H]5c5ccccc5)[C@H](C(=O)N[C@H]5C[C@@H]5c5ccccc5)C4)cc3o2)C[C@@H]1OC [Compound 247]", "EC50": "> 1000 nM"}

Field: next molecule
**Q:** Supply recorded EC50 for CCCCCCCCCNC(=O)[C@@H]1CN(C(=O)c2ccc(C(=O)N3C[C@@H](C(=O)N[C@H]4C[C@@H]4c4ccccc4)[C@H](C(=O)N[C@H]4C[C@@H]4c4ccccc4)C3)cc2)CCN1C(C)=O [Compound 257] here.
**A:** 351 to 1000 nM

====

- STUDY_TARGET: TLR2 (Homo sapiens, UniProt O60603)
- PROCEDURE_SUMMARY: TLR2 in vitro functional assay, cytokine release from human monocytic cell line THP-1
- Format: cell-based
- CONDITION_LABEL: THP-1 human monocytic cell line, average of all runs
ATTRIBUTE_MEASURED: EC50

{"COMPOUND": "CCCCCCCCCCCCCCNC(=O)[C@@H]1CCCN(C(=O)c2ccc(C(=O)N3C[C@@H](C(=O)N[C@H]4C[C@@H]4c4ccccc4)[C@H](C(=O)N[C@H]4C[C@@H]4c4ccccc4)C3)cc2)C1", "RESULT": "0.1 to 50 nM"}
{"COMPOUND": "CCCCCCCCCCCCCCC(=O)N[C@H]1CCN(C(=O)c2ccc(C(=O)N3C[C@@H](C(=O)N[C@H]4C[C@@H]4c4ccccc4)[C@H](C(=O)N[C@H]4C[C@@H]4c4ccccc4)C3)cc2)C1", "RESULT": "51 to 350 nM"}
{"COMPOUND": "CCCCCCCCCCCCCCNC(=O)[C@H]1CN(C(=O)c2ccc(C(=O)N3C[C@@H](C(=O)N[C@H]4C[C@@H]4c4ccccc4)[C@H](C(=O)N[C@H]4C[C@@H]4c4ccccc4)C3)cc2)C[C@H]1O (relative stereo)", "RESULT": "0.1 to 50 nM"}
{"COMPOUND": "CCCCCCCCCCCCCCNC(=O)[C@@H]1CN(C(=O)c2ccc(C(=O)N3C[C@@H](C(=O)N[C@H]4C[C@@H]4c4ccccc4)[C@H](C(=O)N[C@H]4C[C@@H]4c4ccccc4)C3)cc2)C[C@@H]1O (single isomer, unassigned)", "RESULT": "0.1 to 50 nM"}
{"COMPOUND": "CCCCCCCC(=O)N1CCN(C(=O)c2ccc(C(=O)N3C[C@@H](C(=O)N[C@H]4C[C@@H]4c4ccccc4)[C@H](C(=O)N[C@H]4C[C@@H]4c4ccccc4)C3)cc2)C[C@@H]1C(=O)NCCCCCC", "RESULT": "0.1 to 50 nM"}

Hi there! I need EC50 for each item below, if you can.
1. CCCCCCCCCCCCCCNC(=O)C1CN(C(=O)c2ccc(C(=O)N3C[C@@H](C(=O)N[C@H]4C[C@@H]4c4ccccc4)[C@H](C(=O)N[C@H]4C[C@@H]4c4ccccc4)C3)cc2)CCN1 (mixture of isomers)
2. CCCCCCCCN1C(=O)CN(C(=O)c2ccc(C(=O)N3C[C@@H](C(=O)N[C@H]4C[C@@H]4c4ccccc4)[C@H](C(=O)N[C@H]4C[C@@H]4c4ccccc4)C3)cc2)C[C@@H]1C(=O)NCCCCCC
3. CCCCCCCCCCCCCCC(=O)N[C@@H]1CCN(C(=O)c2ccc(C(=O)N3C[C@@H](C(=O)N[C@H]4C[C@@H]4c4ccccc4)[C@H](C(=O)N[C@H]4C[C@@H]4c4ccccc4)C3)cc2)C1
4. CCCCCCCNC(=O)[C@@H]1CN(C(=O)c2ccc(C(=O)N3C[C@@H](C(=O)N[C@H]4C[C@@H]4c4ccccc4)[C@H](C(=O)N[C@H]4C[C@@H]4c4ccccc4)C3)cc2)C[C@@H]1OCCCCCCC (relative stereo)
5. CCCCCCCCCCCCCCNC(=O)[C@@H]1CN(C(=O)c2ccc(C(=O)N3C[C@@H](C(=O)N[C@H]4C[C@@H]4c4ccccc4)[C@H](C(=O)N[C@H]4C[C@@H]4c4ccccc4)C3)cc2)C[C@H]1OC (relative stereo) [Compound 060]
6. CCCCCCCCCCCCCCC(=O)N[C@H]1CN(C(=O)c2ccc(C(=O)N3C[C@@H](C(=O)N[C@H]4C[C@@H]4c4ccccc4)[C@H](C(=O)N[C@H]4C[C@@H]4c4ccccc4)C3)cc2)C[C@@H]1OC

**A:**
1. 0.1 to 50 nM
2. 0.1 to 50 nM
3. 0.1 to 50 nM
4. 0.1 to 50 nM
5. 0.1 to 50 nM
6. 0.1 to 50 nM
